The reported measurements were obtained from ChEMBL document CHEMBL1121897.

test system: Rattus norvegicus; test: Relative potency of compound was measured in conscious SH rats after po administration.; type: functional
Parameter Measured: Relative potency
Output spec: single numeric token, no unit.

Compound	Relative potency
CC(C)=NNc1ccc(-n2ccnc2C)nn1	3.37

// Relative potency lookup, compound = NNc1ccc(-n2cccn2)nn1 , result: 1.32

Entry N/N=c1\[nH][nH]/c(=N\N)c2ccccc12 [DIHYDRALAZINE] ; Relative potency = 1

Relative potency reported for this compound CCc1nccn1-c1ccc(NN=C(C)C)nn1 : 3.54

* * *

assay: Acute toxicity was measured as LD50 in mice after ip administration; format: organism-based; settings: mouse, in vivo
Labelling: LD50 reported below 500 µmol/kg becomes class 1; at or above becomes class 0.

Molecular String	Category Label
NNc1ccc(-n2ccnc2)nn1	class 0
NNc1ccc(-c2cccs2)nn1	class 0
Cl.NNc1ccc(-n2cccc2)nn1	class 1
NNc1ccc(-n2ccc3ccccc32)nn1	class 1
Cc1nccn1-c1ccc(NN)nn1	class 0

# input Input NNc1ccc(-n2cccn2)nn1 ; condition: LD50 strictly below 500 µmol/kg. Does it hold?
# output class 1

# input I wonder whether NNc1ccc(-n2cncn2)nn1 has LD50 below 500 µmol/kg. Can you tell?
# output class 1

# input Confirm or reject: LD50 of CCc1nccn1-c1ccc(NN)nn1 lies strictly below 500 µmol/kg
# output class 0

* * *

tested on: Rattus norvegicus; test: Antihypertensive activity was measured as ED20 which is the dose lowered the normal arterial pressure in conscious SH rats by 20% after po administration; format: functional, Artery
Parameter Measured: ED20 (µM/kg)
Report the value in µM/kg with no unit label.

Examples from the recorded data:
Molecular String	ED20 (µM/kg)
Cc1nccn1-c1ccc(NN)nn1	7.42
NNc1ccc(-n2cccn2)nn1	27.3

The reported Rattus norvegicus ED20 of Cl.NNc1ccc(-n2cccc2)nn1 is 40.1

# value of ED20, Rattus norvegicus, item CCc1nccn1-c1ccc(NN)nn1 = 14.3

* * *

assay: Acute toxicity was measured as LD50 in mice after ip administration.; type: organism-based; settings: mouse, in vivo
# Lookup of reported LD50 keyed by entry
Give the value in µmol/kg but do not write µmol/kg after it.

Molecule	Scale Unit	LD50
CC(C)=NNc1ccc(-n2ccnc2C)nn1	µmol/kg	430
N/N=c1\[nH][nH]/c(=N\N)c2ccccc12 [DIHYDRALAZINE]	µmol/kg	1080

Now turn to the next molecule.
The reported LD50 of the molecule CCc1nccn1-c1ccc(NN=C(C)C)nn1 was 508

* * *

system: Rattus norvegicus; assay: Hypotensive activity was measured as ED20 which is the dose lowered the normal arterial pressure in anesthetized rats by 20% after iv administration.; assay type: functional, Artery
Parameter Measured: log10(ED20) (log10 of the value in µM/kg)
On a log10 scale: recorded ED20, unit µM/kg.

Compound	log10(ED20)
CC(C)=NNc1ccc(-n2ccnc2C)nn1	-0.62

The reported Rattus norvegicus log10(ED20) of CC(C)=NNc1ccc(-n2cccc2)nn1.Cl is 0.67

Rattus norvegicus assay, compound N/N=c1\[nH][nH]/c(=N\N)c2ccccc12 [DIHYDRALAZINE] , recorded log10(ED20) = -0.35

Given the compound CCc1nccn1-c1ccc(NN=C(C)C)nn1 and test system Rattus norvegicus, the measured log10(ED20) is -0.61

Tested system Rattus norvegicus; log10(ED20) recorded for CC(C)=C/C(C)=N\Nc1ccc(-n2cccc2)nn1.Cl was 0.25
